B1: PBXIP1 (parent)
chain: EKQKQPRWREGTKDSHDPLPSWAE

Variants of: B1
Assay: protein stability index of a GFP-peptide fusion (GPS, HEK-293T) (PSI 1-6); higher = more stable;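 also: lentivirally expressed fusions sorted by FACS into six bins by GFP to DsRed ratio, PSI derived from sequencing read proportions per bin multiplied by bin number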
Settings: c terminus: a fixed tail appended
# protein stability index annotations
API doc: respond with a numeric literal and nothing else, no unit.

Here's what some known entries look like.
Variant description | Readout type | Result
W8H | protein stability index | 2.41
R9E | protein stability index | 3.15
Q3W | protein stability index | 1.41
D14S | protein stability index | 3.28
K4Q | protein stability index | 1.92

Exam item: For the variant shown here, "K13N" , give the reported protein stability index.
Marked response: 2.35

Exam item: Please do the same for "P18N" as well.
Marked response: 1.92

Exam item: Okay, and "Q3R" ?
Marked response: 2.14

Exam item: Also, "A23Q" please.
Marked response: 2.26

Exam item: Okay, and "P6G" ?
Marked response: 2.11

Exam item: Please do the same for "S21N" as well.
Marked response: 2.01

Exam item: Queued: "G11H"
Marked response: 3.13

Exam item: "E24P" ?
Marked response: 4.12

Exam item: Entry "S21T" please
Marked response: 2.62

Exam item: Same thing, different variant: "P20N"
Marked response: 1.88

Exam item: Follow-up entry: "W22E"
Marked response: 5.99

Exam item: // next record "S21Q"
Marked response: 3.03

Exam item: Same read-out for "S15C" ?
Marked response: 2.95

Exam item: Proceed to "H16K"
Marked response: 1.93

Exam item: Try the variant "E24W"
Marked response: 1.95

All values here come from the supplement of paper PMC10567573.
